system: NCI-H23; assay: NCI tumour cell line growth inhibition, 48 h
The source made the active and inactive calls. Rule as the data show it: active = GI50 up to about 1.1 µM and inactive = higher.
Please answer using one outcome listed in 1 for active, 0 for inactive

INSERT INTO assay_data (compound, class) VALUES
  ('C/C=C/C1OC(O)(C(C)C(O)[C@H](C)C2OC(=O)/C(OC)=C/C(C)=C/[C@@H](C)[C@@H](O)[C@@H](C)C(O)C(C)C/C(C)=C/C=C/C2OC)C[C@@H](OC2CC(O)C(OC(N)=O)C(C)O2)C1C (stereo not given in full)', 1),
  ('Oc1cc2c(cc1C(c1ccc3c(c1)OCO3)N1CCN(C(c3ccc4c(c3)OCO4)c3cc4c(cc3O)OCO4)CC1)OCO2 (stereo not given)', 0),
  ('NC(=O)Nc1ccc(C(=O)NCCCNC(=O)c2ccc(NC(N)=O)cc2)cc1', 0),
  ('CNC(=S)N/N=C1\CC(c2ccccc2)Oc2ccccc21 (stereo not given)', 0),
  ('N#CC12Cc3cc4c(cc3-c3cccc(c31)CCN2C(=O)c1ccccc1)OCO4 (stereo not given)', 0),
  ('Cc1cccc(NC2=NC(=O)C(CC(=O)Nc3ccccc3Cl)S2)c1 (stereo not given)', 0),
  ('O=C1c2ccccc2NC2C(O)c3ccccc3N12 (stereo not given)', 0),
  ('O=[N+]([O-])C(=C/C1CCCCC1)/C(=C\C1CCCCC1)[N+](=O)[O-]', 0),
  ('COc1ccc2oc(=O)c(-c3nc4ccccc4o3)cc2c1', 0);

Note: attention shifts to another entry.
Data request: // outcome(item) with item = `COc1ccc2c(c1)CCCc1cn[nH]c1-2`
Data returned: 0

###

tested on: KM-20L2; experiment: NCI tumour cell line growth inhibition, 48 h
The source made the active and inactive calls. Cut-off read from the data, not from the text of the source: active = GI50 up to about 1.1 µM and inactive = higher.
parameter measured: GI50

Please review the following examples before continuing.
INSERT INTO assay_data (compound, subject_of_test, parameter_measured, experimental_result) VALUES
  ('C=C(C)C1CC=C(C)CC1 (centres undefined)', 'KM-20L2', 'GI50', '904 µM (inactive)'),
  ('CN(C)CCN(C)C(=O)C1CCCN1C(=O)OCc1ccccc1 (centres undefined)', 'KM-20L2', 'GI50', '> 100 µM (inactive)'),
  ('COc1ccc(OC)c(NC(=O)C2=C(C)NC(C)=C(C(=O)Nc3cc(OC)ccc3OC)C2c2ccccc2)c1', 'KM-20L2', 'GI50', '86.5 µM (inactive)'),
  ('COC(=O)[C@@H]1C(=O)O[C@@H](c2ccc3c(c2)OCO3)[C@@H]1C(=O)OC.COC(=O)[C@H]1C(=O)O[C@@H](c2ccc3c(c2)OCO3)[C@@H]1C(=O)OC', 'KM-20L2', 'GI50', '> 100 µM (inactive)');

Data request: So what's the measured GI50 for this one? `Cc1[nH]c(=O)nc(N/N=C/c2ccc(Cl)cc2)c1C(=O)Nc1ccc(Cl)cc1`
Data returned: > 100 µM (inactive)

###

system: CCRF-CEM; test: NCI tumour cell line growth inhibition, 48 h
Active and inactive are the calls of the source. Rule as the data show it: active = GI50 up to about 1.1 µM and inactive = higher.
parameter measured: GI50

INSERT INTO measurements (compound, parameter_measured, experimental_result) VALUES
  ('CC1(C)OCN(c2ccc(Cl)cc2)Cn2c1nc1ccccc12', 'GI50', '11.4 µM (inactive)'),
  ('O=C1CC(=O)N(C2CCCCC2)C(=O)N1c1ccccc1S(=O)(=O)Oc1ccccc1', 'GI50', '14.9 µM (inactive)'),
  ('CSc1nc(=S)[nH]c2[nH]nc(C)c12', 'GI50', '> 100 µM (inactive)'),
  ('COc1ccc(N2C(=O)C3c4[nH]c5ccccc5c4C4CC(C)CC(C)C4C3C2=O)cc1 (stereo not given)', 'GI50', '> 100 µM (inactive)'),
  ('CCCCCCCCP(=O)(O)OP(=O)(O)OCC1OC(n2ccc(N)nc2=O)C(O)C1O (stereo not given)', 'GI50', '> 100 µM (inactive)'),
  ('O=C(NS(=O)(=O)Nc1ccc(Cl)cc1)OCc1ccc(Cl)cc1Cl', 'GI50', '57 µM (inactive)'),
  ('C=CCN1CCC(O)(c2cc(C(=O)OCC)[nH]c2-c2cc(C)no2)C1 (stereo not given)', 'GI50', '> 100 µM (inactive)'),
  ('Cn1c(=O)c2nc[nH]c2n(C)c1=O', 'GI50', '> 100 µM (inactive)');

Data request: Query (compound): `FC(F)(F)C1=NC(=NNc2nnc(-c3ccccc3)c(-c3ccccc3)n2)N=C(C(F)(F)F)C1` ; field requested: GI50
Data returned: 7.29 µM (inactive)

Data request: Record request: GI50 value, item `Oc1cc(O)c(Oc2cccc(O)c2O)c(O)c1`
Data returned: 33.3 µM (inactive)

###

tested on: U-251; assay: NCI tumour cell line growth inhibition, 48 h
Active and inactive are the calls of the source. Cut-off read from the data, not from the text of the source: active = GI50 up to about 1.1 µM and inactive = higher.
Let's look at some compounds and their measured GI50.

Guide cases for GI50, answers given:
INSERT INTO measurements (compound, experimental_result) VALUES
  ('OC1OC(c2ccco2)C(F)(F)C(F)(F)C1(F)F (stereo unspecified)', '> 100 µM (inactive)'),
  ('Cn1cnc(N2CCCC2)c(C#N)c1=O', '> 100 µM (inactive)'),
  ('Cc1c(N)nc([C@H](CC(N)=O)NC[C@H](N)C(N)=O)nc1C(=O)N[C@H](C(=O)N[C@H](C)[C@@H](O)[C@H](C)C(=O)N[C@H](C(=O)NCCc1nc(-c2nc(C(=O)NCCC[S+](C)C)cs2)cs1)[C@@H](C)O)C(OC1OC(CO)C(O)C(O)C1OC1OC(CO)C(O)C(OC(N)=O)C1O)c1c[nH]cn1 (stereo partly specified)', '0.834 µM (active)'),
  ('Cc1nc2c(C)ccc([N+](=O)[O-])c2c(NCCCN(C)C)c1C', '> 57.8 µM (inactive)');

Data request: Reported GI50 for U-251, given O=C(NN1C(=O)C(Cl)C1c1cccc(Cl)c1)c1ccccc1O (stereo unspecified) ?
Data returned: > 100 µM (inactive)

Data request: Find the measured GI50: item `Cc1oc2c(C)c(O)c3c(c2c1C1(C)OCCO1)C(=O)C=C(Cl)C3=O` , target or system U-251.
Data returned: > 100 µM (inactive)

###

system: HL-60; experiment: NCI tumour cell line growth inhibition, 48 h
Active and inactive are the calls of the source. Cut-off read from the data, not from the text of the source: active = GI50 up to about 1.1 µM and inactive = higher.
parameter measured: GI50

The cases that follow already have their GI50 on record.
INSERT INTO measurements (compound, parameter_measured, experimental_result) VALUES
  ('CC1=C(C(=O)Nc2ccccc2C)C(c2ccc(Cl)cc2)C(C(=O)Nc2ccccc2C)=C(C)N1', 'GI50', '> 100 µM (inactive)'),
  ('C=CCC(CNC(=O)OCc1ccccc1)O[Si](C)(C)C(C)(C)C (stereo not given)', 'GI50', '20.1 µM (inactive)'),
  ('O=C1CSC(C(/N=N/c2ccccc2)=C2Nc3ccccc3N2)=N1', 'GI50', '35.9 µM (inactive)'),
  ('O=C(CC(=O)c1ccccc1)C(=O)NC12CC3CC(CC(C3)C1)C2', 'GI50', '> 48.5 µM (inactive)');

Lab note: next compound to report on.
Data request: # value lookup — system HL-60, readout GI50, item Cc1cn(C2CC(OC(c3ccccc3)(c3ccccc3)c3ccccc3)C(COC(c3ccccc3)(c3ccccc3)c3ccccc3)O2)c(=O)[nH]c1=O (stereo not given)
Data returned: 53.1 µM (inactive)

###

test system: HOP-92; assay: NCI tumour cell line growth inhibition, 48 h
Activity calls are given as the source filed them. Rule as the data show it: active = GI50 up to about 1.1 µM and inactive = higher.
Parameter call: string, one of yes (1) = active, no (0) = inactive

Some entries whose results are on file:
INSERT INTO results (compound, class) VALUES
  ('O=C(CC(C(=O)c1ccsc1)c1ccccc1)c1cccs1 (centres undefined)', 'no (0)'),
  ('Cc1ccsc1/C(S)=N\c1ccc(Cl)c(/C=N/OC(C)(C)C)c1', 'no (0)'),
  ('CCOC(=O)/C=C/[C@H](O)[C@@H](O)/C=C/C(=O)OCC', 'no (0)'),
  ('CC[C@H](C)C1=C(O)[N@+]2([O-])Oc3ccc(-c4c(O)c(O)c(-c5ccc(OC(C)=O)cc5)c(OC(C)=O)c4OC(C)=O)cc3O[C@]2([C@@H](C)CC)C(=O)N1O', 'no (0)'),
  ('CC(C)=CCc1c(C)cc2cc3c(c(O)c2c1O)C(=O)C=C(O)C3(CC=C(C)C)C/C=C(\C)CO (centres undefined)', 'no (0)');

Data request: For this compound, state the assay outcome: `COc1ccc(-c2nc3ccccc3s2)cc1OC`
Data returned: no (0)

Data request: // return assay outcome for `O=[N+]([O-])c1cccc(/C=N/N=c2\ccc3ccccc3[nH]2)c1O`
Data returned: no (0)

Data request: So what was the verdict on CC(=O)OC12OC(C)(C3C(=O)N(c4ccccc4)C(=O)C31)N(c1ccccc1)C2=O (centres undefined) in this test?
Data returned: no (0)

Data request: Record lookup: outcome of this test for CSc1nc(Cl)c2c(n1)Sc1nc3cc4c(cc3n1C2O)OCCO4 (centres undefined) ?
Data returned: yes (1)
